Here's a roundup of IC50 values tested on Tyrosine-protein kinase JAK3 (Homo sapiens), taken from various published works.

// below: answered compounds
CC(C)(C)OC(=O)N1CC(Nc2nc(-n3cnc4ccc(Cl)cc43)nc3c2[nH]c(=O)n3C2CCOCC2)C1	< 0.1 µM
C=CC(=O)N1CCC(Nc2cc(Nc3ccc(F)c(Cl)c3)ncn2)C1 (centres unmarked)	0.1 to 1 µM
CCC(CC)n1cc(-c2nc(-c3cnn(CC4(CO)CC4)c3)cn3nccc23)cn1	1 to 10 µM
CS(=O)(=O)CCNc1nc(Nc2ccc3c(c2)NC[C@H](O)CO3)ncc1C(N)=O	0.01 to 0.1 µM
N#Cc1ccc2ncn(-c3ncc4nc(-c5cncnc5)n(C5CCOc6c(F)ccc(F)c65)c4n3)c2c1 (centres unmarked)	< 0.1 µM

Prompt: So what IC50 did Cn1c(=O)n([C@H]2CC[C@H](O)CC2)c2nc(-n3cnc4ccc(Cl)cc43)nc(N3CC(F)(F)C3)c21 get with Tyrosine-protein kinase JAK3 (Homo sapiens)?
Completion: < 0.1 µM

Prompt: So what IC50 did Nc1ccc2cc1CCc1cncc(c1)Nc1ncc(Cl)c(n1)NC2 get with Tyrosine-protein kinase JAK3 (Homo sapiens)?
Completion: 0.114 µM

Prompt: So what IC50 did NC(=O)c1cnc(Nc2ccc3c(c2)NC[C@H](O)CO3)nc1Nc1ccc2[nH]ccc2c1 get with Tyrosine-protein kinase JAK3 (Homo sapiens)?
Completion: < 0.01 µM

Prompt: So what IC50 did C=CC(=O)N1CCC[C@@H](n2nc(-c3ccc(Oc4ccccc4)cc3C)c3cncnc32)C1 get with Tyrosine-protein kinase JAK3 (Homo sapiens)?
Completion: > 0.5 µM

Prompt: So what IC50 did CN(c1ncnc2[nH]ccc12)N1CCCC(CNC(=O)CC(F)(F)F)C1 (centres unmarked) get with Tyrosine-protein kinase JAK3 (Homo sapiens)?
Completion: 0.1 to 1 µM

Prompt: So what IC50 did CCC(CC)n1cc(-c2nc(-c3cnn(CC4CCS(=O)(=O)CC4)c3)cn3nccc23)cn1 get with Tyrosine-protein kinase JAK3 (Homo sapiens)?
Completion: 1 to 10 µM

----------
Here's a roundup of IC50 values tested on UniProtKB P52333, taken from various published works.

CCN(c1ncc(Cl)cc1CNc1nc(-c2cc(F)c(O)cc2CC(F)(F)F)cc2[nH]nc(C(N)=O)c12)S(C)(=O)=O	0.359 µM
O=c1[nH]c2c(N3CC(O)C3)nc(-n3cnc4ccc(F)cc43)nc2n1[C@@H]1CCOc2c(F)cccc21	< 0.1 µM
CCOC(=O)c1cnc2[nH]ccc2c1N[C@@H]1CCCN(C(=O)[C@@H]2CC2(F)F)C1	0.01 to 0.1 µM
CCC[C@H](C)n1cc(-c2nc(-c3cnn(C(CO)CO)c3)cn3nccc23)cn1	1 to 10 µM
COCCNC(=O)Nc1nccc2c(-c3nc(Nc4cccc(S(C)(=O)=O)c4F)ncc3C)c[nH]c12	< 0.5 µM

Consider now this further compound.
Prompt: So what IC50 did CNC(=O)c1nc(-n2cnc3ccc(F)cc32)nc2c1[nH]c(=O)n2C1CCOCC1 get with UniProtKB P52333?
Completion: < 0.1 µM

----------
Here's a roundup of IC50 values tested on UniProt P52333, taken from various published works.

// below: answered compounds
Cc1ccc(C(=O)Nc2cncc(C(F)(F)F)c2)cc1-c1ccc2c(c1)[nH]c1ncncc12	≤ 500 nM
COc1ccc(-c2nc(-n3cnc4ccc(F)cc43)nc3c2[nH]c(=O)n3C2CCOCC2)cc1	< 100 nM
CC#CC(=O)N1CCC[C@@H]1Cn1nc(-c2ccc(Oc3ccccc3)cc2)c2c(N)ncnc21	> 10000 nM
C=CC(=O)Nc1cccc(Oc2nc(Nc3ccc(OC4CCN(CC)CC4)cc3)nc3ccsc23)c1	50 to 100 nM

Prompt: So what IC50 did C/C=C/[C@H](C1CC1)n1cc(-c2nc(-c3cnn(C)c3)cc3nccn23)cn1 get with UniProt P52333?
Completion: > 1000 nM

Prompt: So what IC50 did CN(C)C1CN(CCNC(=O)c2noc3c2CN(c2ncnc4[nH]ccc24)CC3)C1 get with UniProt P52333?
Completion: 500 to 2000 nM

Prompt: So what IC50 did CNC(=O)c1nc(-n2cnc3ccc(F)cc32)nc2c1[nH]c(=O)n2C1CCOc2ccccc21 (centres unmarked) get with UniProt P52333?
Completion: < 100 nM

Prompt: So what IC50 did C=CC(=O)Nc1cccc(CNc2nc(Nc3ccc(N4CCN(C)CC4)cc3OC)ncc2C2CC2)c1 get with UniProt P52333?
Completion: 220 nM

----------
Here's a roundup of IC50 values tested on Tyrosine-protein kinase JAK3 (Homo sapiens, UniProt P52333), taken from various published works.

// below: answered compounds
CCC(CC)n1cc(-c2nc(-c3cnn(CCN4CC[C@H](OC)C4)c3)cn3nccc23)cn1	1000 to 10000 nM
C=CC(=O)N1CC[C@@H](Nc2nc(Nc3cnoc3)nc3ccsc23)C1	10 to 100 nM
O=c1[nH]c2c(N3CCC(F)(F)C3)nc(-n3cnc4ccc(F)cc43)nc2n1C1CCOCC1	< 100 nM
CCc1cc(O)c(F)cc1-c1cc2[nH]nc(C(=O)NC)c2c(NCc2cc(F)ccc2N(C)S(C)(=O)=O)n1	49 nM
Cc1ccc(NC(=O)c2cccc(F)c2)cc1-c1ccc2c(c1)[nH]c1ncncc12	≤ 500 nM

Prompt: So what IC50 did CC(CO)CNc1nc(-c2cc(F)c(O)cc2CC(F)(F)F)nc2[nH]nc(-c3nc4c([nH]3)CCN(Cc3ccccc3)C4)c12 (centres unmarked) get with Tyrosine-protein kinase JAK3 (Homo sapiens, UniProt P52333)?
Completion: 134 nM

Prompt: So what IC50 did O=C(NCCC1(O)CC(F)(F)C1)c1noc2c1CN(c1ncnc3[nH]ccc13)CC2 get with Tyrosine-protein kinase JAK3 (Homo sapiens, UniProt P52333)?
Completion: 100 to 500 nM

Prompt: So what IC50 did CN(c1ncnc2[nH]ccc12)C1CC2(C1)CN(C(=O)c1cccc(C#N)c1)C2 get with Tyrosine-protein kinase JAK3 (Homo sapiens, UniProt P52333)?
Completion: 1000 to 10000 nM

----------
Here's a roundup of pIC50 values tested on Tyrosine-protein kinase JAK3 (Homo sapiens, UniProt P52333), taken from various published works.
pIC50: −log10 of the molar value.

// below: answered compounds
CCS(=O)(=O)N1CC2(CC(N(C)c3ncnc4[nH]ccc34)C2)C1	≤ 5.00
CCOC(=O)c1cnc2[nH]ccc2c1N[C@H]1CN(CCC#N)CC[C@H]1C	≥ 8.00
Cc1cc(Nc2nccc(-c3ccc(NC(=O)[C@@H]4CC4(F)F)nc3)n2)cnc1C(N)=O	< 5.30
CC(C)Cc1nc(-n2cnc3ccc(F)cc32)nc2c1[nH]c(=O)n2[C@@H]1CCOc2c(F)cccc21	6.00 to 7.00
Cc1ccc(NC(=O)c2cccc(C(F)(F)F)c2)cc1-c1ccc2[nH]c3ncncc3c2c1	6.00 to 6.30

Prompt: So what pIC50 did CC[C@H](Cn1ccc2cnc(Nc3cnn(CC(=O)O)c3)nc21)C(C)C get with Tyrosine-protein kinase JAK3 (Homo sapiens, UniProt P52333)?
Completion: > 7.00

Prompt: So what pIC50 did CCOC(=O)c1cnc2[nH]ccc2c1N[C@H]1CN(C(=O)CC#N)CC[C@H]1C get with Tyrosine-protein kinase JAK3 (Homo sapiens, UniProt P52333)?
Completion: ≥ 8.00

Prompt: So what pIC50 did CNC(=O)c1n[nH]c2cc(-c3cc(F)c(O)cc3CC(F)(F)F)nc(NCc3ccccc3N(C)S(=O)(=O)c3ccc(C)nc3)c12 get with Tyrosine-protein kinase JAK3 (Homo sapiens, UniProt P52333)?
Completion: 6.59

Prompt: So what pIC50 did CCC(CC)n1cc(-c2nc(-c3cnn(CCN4CC[C@H](O)C4)c3)cn3nccc23)cn1 get with Tyrosine-protein kinase JAK3 (Homo sapiens, UniProt P52333)?
Completion: 5.00 to 6.00

Prompt: So what pIC50 did C=CC(=O)Nc1ccc(Nc2nc(Nc3ccccc3)ncc2C)cc1 get with Tyrosine-protein kinase JAK3 (Homo sapiens, UniProt P52333)?
Completion: > 8.00

----------
Here's a roundup of IC50 values tested on Tyrosine-protein kinase JAK3 (Homo sapiens, UniProt P52333), taken from various published works.

Prompt: So what IC50 did N#CCC(C1CC1)n1cc(-c2nc(-c3cnn(CC(F)(F)F)c3)cc3nccn23)cn1 (centres unmarked) get with Tyrosine-protein kinase JAK3 (Homo sapiens, UniProt P52333)?
Completion: 100 to 1000 nM

Prompt: So what IC50 did N#CCC(C1CC1)n1cc(-c2nc(-c3cnn(C4COC4)c3)cc3nccn23)cn1 (centres unmarked) get with Tyrosine-protein kinase JAK3 (Homo sapiens, UniProt P52333)?
Completion: 100 to 1000 nM

Prompt: So what IC50 did CCC(CC)n1cc(-c2nc(-c3cnn(CCN4CCC(CO)CC4)c3)cn3nccc23)cn1 get with Tyrosine-protein kinase JAK3 (Homo sapiens, UniProt P52333)?
Completion: 1000 to 10000 nM

Prompt: So what IC50 did CCc1cc(O)c(F)cc1-c1cc2[nH]nc(C(=O)NC)c2c(NCc2ccccc2N(C)S(N)(=O)=O)n1 get with Tyrosine-protein kinase JAK3 (Homo sapiens, UniProt P52333)?
Completion: 80.9 nM

Prompt: So what IC50 did O=C(Cn1cncn1)Nc1cccc(-c2cnc3ccccc3n2)c1 get with Tyrosine-protein kinase JAK3 (Homo sapiens, UniProt P52333)?
Completion: > 50000 nM

Prompt: So what IC50 did C=CC(=O)N1CC[C@@H](n2nc(-c3ccc(Oc4ccccc4)cc3)c3cncc(C#N)c32)C1 get with Tyrosine-protein kinase JAK3 (Homo sapiens, UniProt P52333)?
Completion: > 500 nM

Prompt: So what IC50 did CCOC(=O)c1cnc(-c2cnc3[nH]ccc3c2N[C@@H]2CCCN(C(=O)CC#N)C2)s1 get with Tyrosine-protein kinase JAK3 (Homo sapiens, UniProt P52333)?
Completion: ≤ 10 nM

Prompt: So what IC50 did CNC(=O)c1n[nH]c2cc(-c3cc(F)c(O)cc3CC(F)(F)F)nc(NCc3ncccc3N(C)S(C)(=O)=O)c12 get with Tyrosine-protein kinase JAK3 (Homo sapiens, UniProt P52333)?
Completion: 54 nM
